Listing of entries alongside the reported kon.
target_under_test: T1, human ROR1 Frizzled domain (hROR1-Fz) (human, UniProt Q01973 165-305)
T1 construct: Acro Biosystems, made in HEK293
protocol_notes: SPR Biacore, IgG on anti-Fc, ROR1-Fz analyte
Your answer should be a plain number; it is taken to be in M⁻¹ s⁻¹.

binder	unit	kon
SRP2196-B03 (antibody, V domains shown, His/FLAG-tagged IgG1) VH: EVQLVESGGGLAQPGGSLRLSCAASGFNITGYYIHWVRQAPGKGLEWVGYISPNSGATHYADSVKGRFTISADTSKNTAYLQMNSLRAEDTAVYYCARDSRRYVRPFDYWGQGTLVTVSS VL: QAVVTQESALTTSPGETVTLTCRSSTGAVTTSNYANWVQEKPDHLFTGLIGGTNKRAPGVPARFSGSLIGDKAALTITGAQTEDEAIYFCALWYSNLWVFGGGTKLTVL	M⁻¹ s⁻¹	124000
SRP2196-A11 (antibody, V domains shown, His/FLAG-tagged IgG1) VH: EVQLVESGGGLVQPGGSLRLSCAASGFNITGYYIHWVRQAPGKGLEWVGQISPNSGTTYDADSVKGRFTISADTSKNTAYLQMNSLRAEDTAVYYCARDSRRYVRGWDYWGQGTLVTVSS VL: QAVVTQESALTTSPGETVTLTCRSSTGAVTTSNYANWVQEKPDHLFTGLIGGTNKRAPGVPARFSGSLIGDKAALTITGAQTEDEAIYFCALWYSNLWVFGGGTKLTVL	M⁻¹ s⁻¹	191000
SRP2196-C02 (antibody, V domains shown, His/FLAG-tagged IgG1) VH: EVQLVESGGGLVQPGGSLRLSCAASGFNITGYHIHWVRQAPGKGLEWVGFISPNSGWTYSADSVKGRFTISADTSKNTAYLQMNSLRAEDTAVYYCARDSRRYVRPFDYWGQGTLVTVSS VL: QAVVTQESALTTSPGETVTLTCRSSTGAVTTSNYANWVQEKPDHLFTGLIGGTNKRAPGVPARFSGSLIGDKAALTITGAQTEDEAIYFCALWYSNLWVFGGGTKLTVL	M⁻¹ s⁻¹	119000
SRP2196-B11 (antibody, V domains shown, His/FLAG-tagged IgG1) VH: EVQLVESGGGLVQPGGSLRLSCAASGFNITGYYIHWVRQAPGRGLEWVGQISPNSGYTYYADSVKGRFTISADTSKNTAYLQMNSLRAEDTAVYYCARDSRRYIRSWDYWGQGTLVTVSS VL: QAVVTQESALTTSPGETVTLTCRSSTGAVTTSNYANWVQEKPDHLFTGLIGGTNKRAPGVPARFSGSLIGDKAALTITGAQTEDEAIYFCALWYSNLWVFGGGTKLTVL	M⁻¹ s⁻¹	137000

Attention now shifts to the item below.
Asked: What does the record list as kon for SRP2196-B02 (antibody, V domains shown, His/FLAG-tagged IgG1) VH: EVQLVESGGGLVQPGGSLRLSCAASGFNITQYYIHWVRQAPGKGLEWVGYISPNSGQTYDADSVKGRFTISADTSKNTAYLQMNSLRAEDTAVYYCARDSRRYVRSWDYWGQGTLVTVSS VL: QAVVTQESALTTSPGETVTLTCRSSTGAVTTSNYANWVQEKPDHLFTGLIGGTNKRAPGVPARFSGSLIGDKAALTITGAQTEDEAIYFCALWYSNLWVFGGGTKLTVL ?
Given back: 163000
